The reported numbers originate from a melting point compilation (Tetko et al.).

What melting point was measured for each of the following?
One number for each entry, in °C.

# example entries with known answers
molecule	unit-label	melting point
Clc1cc2oc3ccc(Cl)c(Cl)c3c2cc1Cl	°C	210
COP(=S)(OC)Oc1ccc(C#N)cc1	°C	14.5
CC1(C)CC(=O)C2=C(C1)Nc1c(ccc3ccccc13)C2c1ccc(Cl)cc1Cl (configuration not stated)	°C	222
CCOc1ccc(N=Nc2ccc(OCC)cc2)cc1	°C	162
CCCCNC(=O)n1cc(F)c(=O)[nH]c1=O	°C	136

Entry under test: CC12CCC(C(Cl)C1=O)C2(C)C (configuration not stated) . Its melting point was 106

* * *

Hi there, I'd appreciate the recorded melting point for every entry that follows.

Would you please look over these solved cases?
molecule	measured
CC(=O)Nc1ccccc1CCCCc1ccccc1NC(C)=O	235 to 237 °C
CCc1c(C(=O)O)c(=O)cnn1-c1ccc(Cl)cc1	269 °C
Cc1ccc2cc3ccccc3cc2c1	209 °C
CC(C)C1(Cc2ccco2)C(=O)NC(=O)NC1=O	169 °C

Go through the items and report each one's melting point.
1. CCN(CC)c1ccc(/C=C2\CC/C(=C\c3ccc(N(CC)CC)cc3)C2=O)cc1
2. Cc1ccc(C(C)(C)C)cc1
3. CC(C)C(C)(N)P(=O)(O)O (configuration not stated)
4. CC12CCC(/C(=N/O)C/C1=N\O)C2(C)C (configuration not stated)

1. 186 to 189 °C
2. -54 °C
3. 248 to 255 °C
4. 209 °C

Each molecule below has a recorded value; state its melting point.
1. N#CCSc1nc(=O)[nH]c2c1CCCC2
2. CCOC(=O)COC(=O)c1cc(Oc2ccc(C(F)(F)F)cc2Cl)ccc1[N+](=O)[O-]
3. NCC[C@H](O)C(=O)O
4. O=[N+]([O-])c1ccc(/C=C/C=C/C=C/c2ccc([N+](=O)[O-])cc2)cc1

1. 223 to 225 °C
2. 65 °C
3. 200 to 203 °C
4. 240 °C

* * *

Provide the recorded melting point for the entries that follow.
One number for each entry, in °C.

Worked cases, melting point given:
compound	melting point [°C]
COC(=O)c1ccc(OC)c(Br)c1	97
O=C(Nc1ccc([N+](=O)[O-])cc1Cl)C1(F)C(F)(F)C(F)(F)C(F)(F)C(F)(F)C1(F)F	93
c1ccc(OCc2ccc(CCN3CCOCC3)cc2)cc1	86
CCCC1CC(C(=O)NC(C(C)Cl)C2OC(SC)C(O)C(O)C2O)N(C)C1 (centres undefined)	141
COc1cc(F)ccc1C(C)=O	52
Cc1ccc(S(=O)(=O)c2coc(S(N)(=O)=O)c2)cc1	185
Cc1ccc(-c2ccc(C=C3C(=O)OC(C)(C)OC3=O)o2)cc1	166
N#CCc1ccccc1CC#N	59
Cc1cc(CC(=O)O)n(C)c1C(=O)c1ccc(Cl)cc1	178
CC(=O)OC1CCC2(C)C(=CC(=O)C3C4CCC(=O)C4(C)CCC32)C1 (centres undefined)	182

Could you report melting point for every entry in the following list?
1. CCCCCCCCCCCCC#CC#CCCCCCCCCC(=O)O
2. Cc1ccc(C(c2ccc(C)o2)c2cc(Br)ccc2O)o1
3. COC(=O)c1ccccc1S(=O)(=O)NC(=O)Nc1nc(OC(F)F)cc(OC(F)F)n1
4. CC(=O)NCCNc1cc(=O)oc2ccccc12
5. COc1ccc(C23C(=C(c4ccccc4)c4ccccc4)C4CC2C3(C)C4(C)C)cc1 (centres undefined)

1: 64; 2: 97; 3: 196; 4: 262; 5: 124
